- Test system: SF-539 CNS
- ASSAY_EXPLANATION: NCI-60 one-dose screen, 48 h
- MEASUREMENT_SETUP: 10 µM unless noted
Compounds without any hit were thinned out: in the full panel of roughly 83,000, 20% have a hit. Activity calls are given as the source filed them. How the source made its calls: active means growth percent below 10; inactive means the rest.
API: response.call in active, inactive

COMPOUND	QUALITATIVE_LABEL
COc1cc(C2CC(c3cccc(Nc4ccnc5cc(Cl)ccc45)c3)=NN2c2ccc(Cl)cc2)cc(OC)c1OC (centres undefined)	inactive
C=C1NC(=O)C(C(C)CC)NC(=O)C2CSCC(NC(=O)CCC(=O)O)C(=O)NC(Cc3ccccc3)C(=O)NC(C)C(=O)NC(CC(C)CC)C(=O)NC(C(=O)NC(Cc3ccccc3)C(=O)N3CCCC3C(=O)N2)C(C)OC(=O)C(CO)NC(=O)C(C(O)COC)N(C)C(=O)C(C(C)C)NC(=O)C(CC(C)CC)NC1=O (centres undefined)	active
COc1ccc2[nH]c(C(=O)OCc3ccc4cccc(O)c4n3)cc2c1	active
O=C1OCC2=C1C(c1ccc(Cl)c(Cl)c1)c1cc3c(cc1N2CCO)CCC3 (centres undefined)	active

Please share the test call associated with Cc1c(-c2ccc(-c3ccccc3F)cc2)nc2ccc(F)cc2c1C(=O)O .
inactive

What outcome does the record of this test show for CCCN(CCC)CC(O)COc1ccccc1C(=O)Nc1ccccc1 (centres undefined) ?
inactive

Per the records of this test, what outcome belongs to CC(=O)O[C@H]1[C@H](CC#CC#CC[C@@H]2C[C@]3(C)[C@H]4CC=C5[C@H]6[C@@H](C)[C@H](C)CC[C@]6(C(=O)NCCN(CCN)CCN)CC[C@@]5(C)[C@]4(C)CC[C@H]3C(C)(C)[C@H]2OC(C)=O)C[C@]2(C)[C@H]3CC=C4[C@H]5[C@@H](C)[C@H](C)CC[C@]5(C(=O)NCCN(CCN)CCN)CC[C@@]4(C)[C@]3(C)CC[C@H]2C1(C)C ?
inactive

# outcome recorded in this test, key = CCCCCCCCCCC(C(O)c1ccccc1)N1CCCCC1 (centres undefined)
inactive

Could you kindly confirm the outcome this assay logged for CCCCCCCCCCCC1=NC(C)(C)CN1C(C)(C)CO ?
inactive

Could you please tell me the result logged for Cc1ccc(O)c(Cc2ccccc2)c1 in this assay?
inactive

# fetch the recorded call for Cc1cc(NC(=O)c2ccc(N)cc2)ccc1N=Nc1ccc2cc(S(=O)(=O)O)cc(S(=O)(=O)O)c2c1 here
inactive

Hey, what did the test say about Cc1cc(C)cc(Nc2cc(C)nc3nc(C(F)(F)F)nn23)c1 ?
active

Field: outcome | Entry: O=C(O)c1ccccc1N=Cc1ccccc1
inactive

Answer briefly: the call reported for COc1cc(C2CC(c3ccc(Cl)cc3)=NN2C=O)ccc1OS(=O)(=O)c1ccc(C)cc1 (centres undefined) in this assay.
inactive

What was the test verdict on Cc1ccc(C2CC(c3cccs3)=NN2c2ccc(S(N)(=O)=O)cc2)s1 (centres undefined) ?
inactive

# outcome recorded in this test, key = CCCCn1c(C)nc2cc(Nc3nc(Cl)nc4nc[nH]c34)ccc21
inactive

Look up the recorded call for Cc1ccc(NC(=O)c2nc(S(C)=O)oc2-c2ccc(F)cc2)cc1Nc1nccc(-c2cccnc2)n1 (centres undefined) in this test.
inactive

Outcome logged for Cc1cc(C)c([O-])c(CN(C)CCN(C)Cc2cc(C)cc(C)c2[O-])c1.O=C([O-])c1cccc(C(=O)[O-])n1.[Ti+4] in this assay:
active

Entry CN1CCN(Cc2ccc(NC(=O)c3ccc(C#N)c(C#Cc4cnc(N)c5ncccc45)c3)cc2C(F)(F)F)CC1 : call = ?
inactive
